System: human APOE RNA
Test: Dose-dependent inhibition of human APOE RNA in HepG2 cells, electroporation, 50,000 cells per well, RT-PCR normalized to GAPDH (Example 4, Tables 8-10)
Format: cell-based
Settings: 13 nM; HepG2, electroporation, 24-hour treatment
Strand notation (5' to 3'): a small letter for the sugar, then the base; units joined by * are phosphorothioate-linked, units joined directly phosphodiester-linked; [ ] holds rarer units or linkages, { } end groups; capitals alone tell only the bases. [ms] = mesyl phosphoramidate linkage; k = constrained ethyl (cEt); [5mC] = 5-methylcytosine; d = 2'-deoxy (DNA)
result_type: APOE RNA (% UTC)

Given 1747051 (k[5mC]*kT*dT[ms]kG*dG[ms]kT*dG[ms]dA[ms]dA[ms]dT*d[5mC]*dT*dT*dT*dA[ms]dT*kT*dA[ms]dA[ms]kA; antisense) [Compound 1747051] , state its recorded APOE RNA (% UTC).
117 % UTC

Would you mind telling me what APOE RNA (% UTC) value was observed for 1746797 (k[5mC]*kT*dT[ms]dG[ms]dG[ms]kT*dG[ms]dA[ms]dA[ms]dT*d[5mC]*dT*dT*dT*dA[ms]dT*kT*dA[ms]kA*kA; antisense) [Compound 1746797] ?
128 % UTC

Look up APOE RNA (% UTC) for this substance: 1746791 (k[5mC]*dT[ms]dT[ms]kG*kG*dT[ms]dG[ms]dA[ms]dA[ms]dT*d[5mC]*dT*dT*dT*dA[ms]dT*kT*kA*dA[ms]kA; antisense) [Compound 1746791]
104 % UTC

Which value of APOE RNA (% UTC) has been reported for 1746784 (k[5mC]*kT*kT*dG[ms]dG[ms]dT[ms]dG[ms]dA[ms]dA[ms]dT*d[5mC]*dT*dT*dT*dA[ms]dT*kT*kA*dA[ms]kA; antisense) [Compound 1746784] in the records?
74 % UTC

====

Tested on: human APOE RNA
Test: Activity in APOE C57BL/6NTac-Apoeem7250 knock-in mice, single ICV bolus, 8 weeks (Example 11)
Format: in vivo
Details: spinal cord; single ICV bolus 300 μg; 8 weeks post treatment; normalized to mouse Ppia
Strand notation (5' to 3'): a small letter for the sugar, then the base; units joined by * are phosphorothioate-linked, units joined directly phosphodiester-linked; [ ] holds rarer units or linkages, { } end groups; capitals alone tell only the bases. [ms] = mesyl phosphoramidate linkage; e = 2'-O-(2-methoxyethyl) (MOE); k = constrained ethyl (cEt); [5mC] = 5-methylcytosine; d = 2'-deoxy (DNA)
result_type: APOE RNA (% control) Spinal Cord
Write the answer as a number in % control, unit excluded.

A selection of reference data follows.
| substance | unit_string | measurement |
| --- | --- | --- |
| 1778128: modified oligonucleotide complementary to human APOE RNA (eA*e[5mC]eTeTkGkG*dT*dG[ms]dA[ms]dA*dT*d[5mC]*dT*dT*dT*dA[ms]kTeT*eA*eA; antisense) [compound 1778128] | % control | 25 |
| 1652899: 6-10-4 MOE gapmer TGGTGAATCTTTATTAAACT, linkages sooooossssssssssoss (antisense eT*eGeGeTeGeAdA*dT*d[5mC]*dT*dT*dT*dA*dT*dT*dA*eAeA*e[5mC]*eT) [compound 1652899] | % control | 16 |
| 1785604: modified oligonucleotide complementary to human APOE RNA (k[5mC]*dT[ms]dT[ms]kG*dG[ms]kT*dG[ms]dA[ms]dA*dT*d[5mC]*dT*dT*dT*dA*dT*kT*kA*dA[ms]kA; antisense) [compound 1785604] | % control | 35 |

Now consider the entry below.
Which APOE RNA (% control) Spinal Cord is reported for this substance? 1810069: mixed MOE/cEt gapmer CTTGGTGAATCTTTATTAAAC, sugar eeeeekddddddddddeeeee, linkages zsossszzzssssszsoosz (e[5mC][ms]eT*eTeG*eG*kT*dG[ms]dA[ms]dA[ms]dT*d[5mC]*dT*dT*dT*dA[ms]dT*eTeAeA*eA[ms]e[5mC]) [compound 1810069]
27

====

Tested on: human APOE RNA
Experiment: Dose-dependent inhibition of human APOE RNA in HepG2 cells, electroporation, 50,000 cells per well, RT-PCR normalized to GAPDH (Example 4, Tables 8-10)
Format: cell-based
Conditions: 82 nM; HepG2, electroporation, 16-hour treatment
Strand notation (5' to 3'): a small letter for the sugar, then the base; units joined by * are phosphorothioate-linked, units joined directly phosphodiester-linked; [ ] holds rarer units or linkages, { } end groups; capitals alone tell only the bases. [ms] = mesyl phosphoramidate linkage; e = 2'-O-(2-methoxyethyl) (MOE); k = constrained ethyl (cEt); [5mC] = 5-methylcytosine; d = 2'-deoxy (DNA)
# key: entry, value: APOE RNA (% UTC)
Express the result in % UTC but write the number alone.

Examples with answers:
| substance | unit_string | measurement |
| --- | --- | --- |
| 1757568 (eA*e[5mC]eTeTeG*dG*dT*dG*dA*dA*dT*d[5mC]*dT*dT*dT*kAkTeT*eA*eA; antisense) [Compound 1757568] | % UTC | 96 |
| 1757567 (eA*e[5mC]eTeTeG*dG*dT*dG*dA*dA*dT*d[5mC]*dT*dT*dT*kAeTeT*eA*eA; antisense) [Compound 1757567] | % UTC | 91 |
| 1757562: mixed MOE/cEt gapmer TTGGTGAATCTTTATTAA, sugar eeeekddddddddkkeee, linkages soossssssssssooss (eT*eTeGeG*kT*dG*dA*dA*dT*d[5mC]*dT*dT*dT*kAkTeT*eA*eA) [compound 1757562] | % UTC | 87 |
| 1757541: mixed MOE/cEt gapmer TTGGTGAATCTTTATTAA, sugar eeeekddddddddeeeee, linkages soossssssssssooss (eT*eTeGeG*kT*dG*dA*dA*dT*d[5mC]*dT*dT*dT*eAeTeT*eA*eA) [compound 1757541] | % UTC | 99 |
| 1757569 (eA*e[5mC]eTkTkG*dG*dT*dG*dA*dA*dT*d[5mC]*dT*dT*dT*kAeTeT*eA*eA; antisense) [Compound 1757569] | % UTC | 81 |

Which APOE RNA (% UTC) is reported for this substance? 1766537 (eT*eTeGeGeT*dG[ms]dA[ms]dA[ms]dT*d[5mC]*dT*dT*dT[ms]dA*dT*kTkAeA*eA*e[5mC]; antisense) [Compound 1766537]
89

Need APOE RNA (% UTC), item 1757581 (eT*eTeGeGkT*dG*dA*dA*dT*d[5mC]*dT*dT*dT*dA*dT*eTeAeA*eA*e[5mC]; antisense) [Compound 1757581]
78

Given the substance 1757559: mixed MOE/cEt gapmer TTGGTGAATCTTTATTAA, sugar eeeekddddddddkeeee, linkages soossssssssssooss (eT*eTeGeG*kT*dG*dA*dA*dT*d[5mC]*dT*dT*dT*kAeTeT*eA*eA) [compound 1757559] , what is its reported APOE RNA (% UTC)?
87

Dear colleague, I am looking for the recorded APOE RNA (% UTC) of the following substance: 1757561: mixed MOE/cEt gapmer TTGGTGAATCTTTATTAA, sugar eeekkddddddddkeeee, linkages soossssssssssooss (eT*eTeGkG*kT*dG*dA*dA*dT*d[5mC]*dT*dT*dT*kAeTeT*eA*eA) [compound 1757561]
104

Value lookup for APOE RNA (% UTC); key = 1757571 (eA*e[5mC]eTeT*eG*kG*dT*dG[ms]dA[ms]dA[ms]dT*d[5mC]*dT*dT*dT*dA[ms]eT*eT*eA*eA; antisense) [Compound 1757571]
62

====

Test system: human APOE RNA
Assay: Dose-dependent inhibition of human APOE RNA in HepG2 cells, electroporation, 50,000 cells per well, RT-PCR normalized to GAPDH (Example 4, Tables 8-10)
Assay type: cell-based
Conditions: 512 nM; HepG2, electroporation, 24-hour treatment
Strand notation (5' to 3'): a small letter for the sugar, then the base; units joined by * are phosphorothioate-linked, units joined directly phosphodiester-linked; [ ] holds rarer units or linkages, { } end groups; capitals alone tell only the bases. [ms] = mesyl phosphoramidate linkage; k = constrained ethyl (cEt); [5mC] = 5-methylcytosine; d = 2'-deoxy (DNA)
result_type: APOE RNA (% UTC)
Value expressed in % UTC; do not type the unit.

Reference set (2 entries):
| substance | tested_on | unit_string | APOE RNA (% UTC) |
| --- | --- | --- | --- |
| 1746792 (k[5mC]*dT[ms]dT[ms]kG*dG[ms]kT*dG[ms]dA[ms]dA[ms]dT*d[5mC]*dT*dT*dT*dA[ms]dT*kT*kA*dA[ms]kA; antisense) [Compound 1746792] | human APOE RNA | % UTC | 44 |
| 1746800 (k[5mC]*dT[ms]kT*dG[ms]dG[ms]kT*dG[ms]dA[ms]dA[ms]dT*d[5mC]*dT*dT*dT*dA[ms]dT*kT*dA[ms]kA*kA; antisense) [Compound 1746800] | human APOE RNA | % UTC | 77 |

Let's switch to this substance now.
Entry under review: 1746784 (k[5mC]*kT*kT*dG[ms]dG[ms]dT[ms]dG[ms]dA[ms]dA[ms]dT*d[5mC]*dT*dT*dT*dA[ms]dT*kT*kA*dA[ms]kA; antisense) [Compound 1746784] . Reported APOE RNA (% UTC)?
48

The origin of these recorded values is patent US20250353873A1.
